- Protocol Text: qHTS of pediatric cancer cell lines to identify multiple opportunities for drug repurposing: Confirmatory screen for U-2 OS cells (AID 1347122); note: nearly all actives have a fitted effect of over 65% in size
- Measurement Context: U-2 OS osteosarcoma cell viability; series mostly up to 45.9 µM
- Experimental: Drug repurposing or repositioning has been offered as a strategy for drug development in oncology programs. […] [1] Shen, M et al. Quantitative high-throughput phenotypic screening of pediatric cancer cell lines identifies multiple opportunities for drug repurposing. […] Cells were assayed in growth media at a density of 500-1,000 cells/well. […] After a 15 min incubation at room temperature, samples were analyzed for luminescence intensity using a ViewLux High-throughput CCD imager equipped with clear filters.
Inconclusive results are not listed. Activity calls are given as the source filed them. Calls come from the whole dose curve; as a rule, active = well fitted cell-killing curve with a large enough effect; inconclusive = small, poorly fitted or top-dose-only effect; inactive = no such curve, though single readings can be large or run the other way.
Valid outcomes are listed here; reply with one: Y = active, N = inactive

Entry Smiles	Label
C[C@@H]1O[C@@H](O[C@@H]2C=C3CC[C@@H]4[C@@H](CC[C@]5(C)[C@H](c6ccc(=O)oc6)CC[C@@]45O)[C@@]3(C)CC2)[C@H](O)[C@H](O)[C@H]1O	Y
Cc1ccccc1-n1c(Cn2cnc3c(N)ncnc32)nc2cccc(C)c2c1=O	N

In this assay, the call recorded for COC1=CC(C)=C[C@@H](C)[C@@H](O)[C@@H](C)CC(C)=CC=C[C@H](OC)[C@H]([C@@H](C)[C@@H](O)[C@H](C)[C@@]2(O)C[C@@H](O)[C@H](C)[C@@H](C(C)C)O2)OC1=O was what?
N

// return assay outcome for CC1=C(O)C(=O)C=C2C1=CC=C1[C@@]2(C)CC[C@@]2(C)[C@@H]3C[C@](C)(C(=O)O)CC[C@]3(C)CC[C@]12C
Y

---

- Protocol Text: Quantitative High-Throughput drug screen in 47 multiple myeloma cell lines against the NCATS MIPE library collection: KHM11_PLB cell viability assay (AID 1918962); note: nearly all actives have a fitted effect of over 35% in size
- Measurement Context: KHM11 myeloma cell viability, CellTiter-Glo ATP luminescence, 48 h; series mostly up to 45.8 µM
Results filed as inconclusive are left out. Active and inactive are the calls of the source. The call rests on the fitted dose curve; in most records, active means well fitted cell-killing curve with a large enough effect; inconclusive means small, poorly fitted or top-dose-only effect, or effect the other way; inactive means no such curve, though single readings can be large or run the other way.
Bench note: report the call from active, inactive

// known answers, use as guide
Compound	Label
c1ccc2c(CN3CCNCC3)cccc2c1	inactive
CC[C@@H](C(N)=O)N1CCCC1=O	inactive
COc1ccc2c(c[n+](C)c3c4cc5c(cc4ccc23)OCO5)c1OC	active
NC1CC1c1ccccc1 (stereo unspecified)	inactive
CC(C)N(CCNC(=O)CN1CCCC1=O)C(C)C	inactive

Hi, do you know how COc1ccc(C(=O)c2c(C)n(CCN3CCOCC3)c3cc(I)ccc23)cc1 came out in this test?
inactive

---

- Protocol Text: Quantitative High-Throughput drug screen in 47 multiple myeloma cell lines against the NCATS MIPE library collection: FR4_PLB cell viability assay (AID 1918924; note: nearly all actives have a fitted effect of over 35% in size; note: potency is the fitted concentration of half-maximal effect)
- Measurement Context: FR4_PLB myeloma cells viability, CellTiter-Glo ATP, 48 h; series mostly up to 45.8 µM
Results filed as inconclusive are left out. Activity calls are given as the source filed them. The call rests on the fitted dose curve; in most records, active means well fitted cell-killing curve with a large enough effect; inconclusive means small, poorly fitted or top-dose-only effect, or effect the other way; inactive means no such curve, though single readings can be large or run the other way.
Assay Readout: Potency

These solved cases illustrate the format of a correct answer.
Compound	Potency
C[C@]12CC[C@H]3[C@@H](CCC4=CC(=O)CC[C@@]43C)[C@H]1CC[C@H]2OC(=O)CCC1CCCC1	inactive
c1ccc(CCCN2CCN(CCOC(c3ccccc3)c3ccccc3)CC2)cc1	23.5 µM (active)
COc1ccc2c(c1)[C@]13CCCCC1C(C2)N(C)CC3 (stereo partly specified)	inactive
O=C(NCC1CCOCC1)c1cnc(Nc2ccc(Cl)cc2Cl)nc1C(F)(F)F	14.8 µM (active)

Value of measured Potency for the entry O=C(Nc1ccncc1)C(=O)c1cn(Cc2ccc(Cl)cc2)c2ccccc12 : 0.0166 µM (active)

Lab note: measured Potency of C[C@@H]1[C@H](O)[C@@H](C)C=CC=CCCC=CC=CC=CC=C[C@H](O[C@H]2O[C@@H](C)[C@H](O)[C@@H](N)[C@@H]2O)CC2O[C@](O)(C[C@@H](O)[C@H](O)CC[C@@H](O)C[C@@H](O)C[C@@H](O)CC(=O)O[C@H]1C)C[C@H](O)[C@H]2C(=O)O was inactive
